test: qHTS Assay to Find Inhibitors of Chronic Active B-Cell Receptor Signaling: Hit Validation in Primary Screen; details: ABC-DLBCL IkB-luc/CBR ratio luminescence, 4 h; series mostly up to 46.1 µM; also: nearly all actives have a fitted effect of over 75% in size
Hit rate of the full screen: of about 1,200 compounds, about 480 (40%) were called active. Roughly 29% stayed inconclusive and do not appear here. This is one part of the list.

>  <compound>
C/C(=N\N1C(=O)c2ccccc2NC1c1ccco1)c1ccccc1O (centres undefined)

>  <outcome>
inactive

$$$$
>  <compound>
CCOc1ccc2nc(N3C(=O)CNC3=S)sc2c1

>  <outcome>
inactive

$$$$
>  <compound>
CCCCN(C(=O)CSc1nc2ccccc2n1CC)C1CCS(=O)(=O)C1 (centres undefined)

>  <outcome>
inactive

$$$$
>  <compound>
CCOc1ccc(NCc2ccccc2OCc2cccc(F)c2)cc1

>  <outcome>
inactive

$$$$

---

assay: qHTS Assay to Find Inhibitors of Chronic Active B-Cell Receptor Signaling: Hit Validation in Primary Screen; details: ABC-DLBCL IkB-luc/CBR ratio luminescence, 4 h; series mostly up to 46.1 µM; also: nearly all actives have a fitted effect of over 75% in size
Among all 1,200 compounds or so, about 480 (40%) were called active. About 29% were inconclusive and are not listed. Calls come from the whole dose curve; as a rule, active = well fitted inhibition curve with a large enough effect; inconclusive = small, poorly fitted or top-dose-only effect; inactive = no such curve, though single readings can be large or run the other way. The list shows a part of the results.
Labels: y = active, n = inactive

>  <molecule>
COc1cc2c(c(OC)c1OC)-c1ccc(OC)c(=O)cc1C(NC(C)=O)CC2 (stereo unspecified)

>  <answerLabel>
y

$$$$
>  <molecule>
OC[C@H]1O[C@@H](n2cnc3c(NC4CCCC4)ncnc32)[C@H](O)[C@@H]1O

>  <answerLabel>
y

$$$$
>  <molecule>
O=C(CSc1ncn[nH]1)Nc1nnc(-c2ccccc2)s1

>  <answerLabel>
y

$$$$
>  <molecule>
COc1cc(OC)c2c(-c3cccc(-c4cccc(N)c4)c3)cc(=O)oc2c1

>  <answerLabel>
y

$$$$
>  <molecule>
COc1ccc(NS(=O)(=O)c2cc(NC(=O)CNC(=O)c3cccc(OC)c3)ccc2C)cc1

>  <answerLabel>
n

$$$$
>  <molecule>
CCN(CC)c1ccc(Nc2cc3n(c(=O)n2)CCc2cc(OC)c(OC)cc2-3)cc1

>  <answerLabel>
n

$$$$

---

assay: qHTS Assay to Find Inhibitors of Chronic Active B-Cell Receptor Signaling: Hit Validation in Primary Screen; settings: ABC-DLBCL IkB-luc/CBR ratio luminescence, 4 h; series mostly up to 46.1 µM; also: nearly all actives have a fitted effect of over 75% in size
The campaign covered roughly 1,200 compounds. About 480 (40%) were called active. Roughly 29% stayed inconclusive and do not appear here. Calls come from the whole dose curve; as a rule, active = well fitted inhibition curve with a large enough effect; inconclusive = small, poorly fitted or top-dose-only effect; inactive = no such curve, though single readings can be large or run the other way. The list shows a part of the results.
Labels: label 1 = active, label 0 = inactive

>  <compound>
S=c1nc2ccccc2c2nc(-c3ccccc3)[nH]n12

>  <answerLabel>
label 1

$$$$
>  <compound>
Cc1nn(C)cc1CNC(=O)COc1ccc(Cl)cc1Cl

>  <answerLabel>
label 0

$$$$
>  <compound>
COc1ccc(/C=N/NC(=O)c2cc3c(OC)ccc(OC)c3[nH]2)cc1O

>  <answerLabel>
label 1

$$$$
>  <compound>
COc1cc(C(=O)N2CCN(c3cc(Cl)ccc3Cl)CC2)cc(OC)c1OC

>  <answerLabel>
label 1

$$$$
>  <compound>
CC(NC(=O)c1ccc(S(=O)(=O)NCc2ccco2)cc1)c1ccc(F)cc1 (configuration not stated)

>  <answerLabel>
label 0

$$$$
>  <compound>
Cc1nn(CCC(=O)NNC(=S)Nc2ccccc2)c(C)c1Br

>  <answerLabel>
label 0

$$$$
>  <compound>
CCOC(=O)C1CCN(S(=O)(=O)c2c(Cl)ccc3nonc23)CC1

>  <answerLabel>
label 1

$$$$
>  <compound>
CCOc1ccccc1N1CSC2=C(C#N)C(c3c(OC)ccc4ccccc34)CC(=O)N2C1 (configuration not stated)

>  <answerLabel>
label 0

$$$$
>  <compound>
CCC1=Nc2cc(C(=O)NCc3ccccc3Cl)ccc2Sc2ccc(C)cc21

>  <answerLabel>
label 1

$$$$
>  <compound>
Cc1csc(NC(=S)NC(=O)c2ccccc2)n1

>  <answerLabel>
label 0

$$$$
>  <compound>
CCC1=Nc2cc(C(=O)NCc3ccco3)ccc2Sc2ccccc21

>  <answerLabel>
label 1

$$$$
>  <compound>
COc1ccc(/C=N/NC(=O)c2[nH]c3ccc(C)cc3c2-c2ccccc2)c(C(=O)O)c1OC

>  <answerLabel>
label 0

$$$$

meta.source: PubChem BioAssay AID651558
